target: Beta-adrenergic receptor kinase 1 (Homo sapiens); assay: GRK2 binders displacing RNA aptamer, biochemical, validation, human GRK2, bead flow cytometry (AID 488806); conditions: bead-bound GRK2, FAM-aptamer displacement, at 10 µM, hits give high values
recorded.metric: aptamer binding inhibition (%)
Please reply with the bare figure in % and do not write the unit itself.

molecule	aptamer binding inhibition, %
CC(C)CC(NC(=O)c1cccc(Cl)c1)C(=O)O (stereo unspecified)	0

// query Lab note: need aptamer binding inhibition for O=C1C(Cc2c[nH]c3ccccc23)NC(=S)N1Cc1ccccc1 (stereo unspecified) on Beta-adrenergic receptor kinase 1 (Homo sapiens), anyone have it?
// result 1

// query Lab note: need aptamer binding inhibition for C=CCOc1ccc(C(=O)CC)cc1OC on Beta-adrenergic receptor kinase 1 (Homo sapiens), anyone have it?
// result 1

// query Lab note: need aptamer binding inhibition for C#C[C@]1(O)CC[C@H]2[C@@H]3CCc4cc(OC5CCCC5)ccc4[C@H]3CC[C@@]21C on Beta-adrenergic receptor kinase 1 (Homo sapiens), anyone have it?
// result -1

// query Lab note: need aptamer binding inhibition for CC(C)(C)C(=O)N1CCCC1C(=O)O (stereo unspecified) on Beta-adrenergic receptor kinase 1 (Homo sapiens), anyone have it?
// result 11

// query Lab note: need aptamer binding inhibition for COc1ccccc1N1C(=O)C2CC(C)=C(C)CC2C1=O (stereo unspecified) on Beta-adrenergic receptor kinase 1 (Homo sapiens), anyone have it?
// result 11

// query Lab note: need aptamer binding inhibition for CCc1cc2c(=O)c(-c3ccc4c(c3)OCCO4)coc2c(CN2CCCCC2C)c1O (stereo unspecified) on Beta-adrenergic receptor kinase 1 (Homo sapiens), anyone have it?
// result 2

Sourced from PubChem BioAssay
